Overview of recorded AIRE transcriptional activation functional score for various variants
B1: library; numbered along this chain (parent)
chain: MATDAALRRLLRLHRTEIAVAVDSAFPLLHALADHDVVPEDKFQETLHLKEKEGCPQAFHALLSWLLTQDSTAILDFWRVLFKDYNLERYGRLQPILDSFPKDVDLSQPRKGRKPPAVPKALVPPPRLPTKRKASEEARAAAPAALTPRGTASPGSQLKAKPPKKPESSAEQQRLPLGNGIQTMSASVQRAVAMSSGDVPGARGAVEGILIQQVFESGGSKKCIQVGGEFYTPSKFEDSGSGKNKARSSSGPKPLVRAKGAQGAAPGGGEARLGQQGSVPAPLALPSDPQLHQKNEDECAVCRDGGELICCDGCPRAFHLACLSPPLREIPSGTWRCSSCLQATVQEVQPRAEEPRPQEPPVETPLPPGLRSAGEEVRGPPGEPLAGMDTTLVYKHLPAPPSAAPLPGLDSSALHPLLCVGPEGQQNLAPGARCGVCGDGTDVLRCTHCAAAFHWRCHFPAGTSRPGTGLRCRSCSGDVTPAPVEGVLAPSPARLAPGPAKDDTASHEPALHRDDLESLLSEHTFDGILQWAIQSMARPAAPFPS

Variants of: B1
ASSAY_TEXT: AIRE transcriptional activation functional score (insulin promoter-GFP; nonsense median 0, synonymous median 1) (normalised score); higher = higher AIRE activity (more reporter activation)
COND: with insulin promoter-GFP reporter in HEK293
The answer should be a number; do not append a unit.

W531R : -0.126
P539L : -0.0017
E136W : 1
V479S : 0.925

The variant `L495P` showed AIRE transcriptional activation functional score equal to 0.262

The variant `P200F` showed AIRE transcriptional activation functional score equal to 0.777

The variant `G387R` showed AIRE transcriptional activation functional score equal to 1.1

The variant `A317S` showed AIRE transcriptional activation functional score equal to 0.689

The variant `L397P` showed AIRE transcriptional activation functional score equal to 0.66

The variant `P143H` showed AIRE transcriptional activation functional score equal to 1.09

The variant `Q182R` showed AIRE transcriptional activation functional score equal to 1.3
